- measurement-target: T1, human GPC3 (human, UniProt P51654 25-563)
- T1 construct: range 25-563; soluble analyte; also called soluble human GPC3; glypican 3
- T1 sequence (P51654 25-563 limits assumed): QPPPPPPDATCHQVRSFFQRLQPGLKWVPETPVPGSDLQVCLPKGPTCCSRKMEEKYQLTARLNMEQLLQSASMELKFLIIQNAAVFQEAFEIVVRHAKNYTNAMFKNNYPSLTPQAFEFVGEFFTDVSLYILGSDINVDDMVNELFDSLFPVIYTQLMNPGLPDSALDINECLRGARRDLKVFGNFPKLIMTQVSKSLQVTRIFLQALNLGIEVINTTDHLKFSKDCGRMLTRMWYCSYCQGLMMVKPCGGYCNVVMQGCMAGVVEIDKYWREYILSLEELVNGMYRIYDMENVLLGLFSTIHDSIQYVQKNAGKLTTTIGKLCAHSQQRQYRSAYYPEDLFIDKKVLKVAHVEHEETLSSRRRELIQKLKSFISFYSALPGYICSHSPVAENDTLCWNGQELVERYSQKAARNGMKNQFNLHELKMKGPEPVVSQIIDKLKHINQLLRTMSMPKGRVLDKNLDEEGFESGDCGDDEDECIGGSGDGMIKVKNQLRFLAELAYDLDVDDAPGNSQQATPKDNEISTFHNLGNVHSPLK
- assay-procedure: SPR
property-name: pKd
Convention used: pKd is expressed as -log10 of the molar concentration.

[[record]]
binder = "H0610-G1dh/none-Hi-Kn010G3/TR01L015-k0 (antibody, V domains shown, one-arm) VH: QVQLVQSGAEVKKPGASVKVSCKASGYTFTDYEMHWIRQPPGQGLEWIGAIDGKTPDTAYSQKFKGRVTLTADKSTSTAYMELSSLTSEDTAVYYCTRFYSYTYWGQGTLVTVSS VL: DIVMTQSPLSLPVTPGEPASISCRSSQSPVHSNRNTYLHWYLQKPGQSPQLLIYKVSNRFSGVPDRFSGSGSGTDFTLKISRVEAEDVGVYYCGQGTQVPYTFGQGTKLEIK"
property_name = "pKd"
recorded_value = 8.67


Now take the following binder into account.
[Q] Reported pKd for H0610-G1dh/none-Hi-Kn010G3/L0141-k0 (antibody, V domains shown, one-arm) VH: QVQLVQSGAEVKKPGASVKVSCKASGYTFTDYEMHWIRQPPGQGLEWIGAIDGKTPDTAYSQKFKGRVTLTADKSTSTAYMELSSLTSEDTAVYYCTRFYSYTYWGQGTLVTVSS VL: DIVMTQSPLSLPVTPGEPASISCRSSQSLVHSNRNTYLHWYQQKPGQAPRLLIYKVSNRFMGVPDRFSGSGSGTDFTLKISRVEAEDVGVYYCGQGTQVPYTFGQGTKLEIK : what is it?
[A] 8.41
